Cited source: patent US4839350A

System: Salmonella typhimurium LT-2
Assay: MIC by agar-dilution method, Salmonella typhimurium LT-2
Format: cell-based
Details: Salmonella enterica, read-out: MIC.
Counter-ions that a name gives are not always drawn.
measureName: MIC (µg/mL)
Supply the numeric figure in µg/mL, leaving out any unit text.

> print(dat)
                                   compound  measureunit  observedvalue
1  CO/N=C(\C(=O)NC1C(=O)N2C(C(=O)O)=C(/C=C/c3scnc3C)CSC12)c1csc(N)n1 (stereo not shown)        µg/mL           0.78
2  CO/N=C(\C(=O)NC1C(=O)N2C(C(=O)O)=C(/C=C\c3ccccc3)CSC12)c1csc(N)n1 (stereo not shown)        µg/mL           6.25
3  CO/N=C(\C(=O)NC1C(=O)N2C(C(=O)O)=C(/C=C/c3cnc(C)s3)CSC12)c1csc(N)n1 (stereo not shown)        µg/mL           0.39
4  CO/N=C(\C(=O)NC1C(=O)N2C(C(=O)O)=C(/C=C\c3scnc3C)CSC12)c1csc(N)n1 (stereo not shown)        µg/mL           0.39
5  CO/N=C(\C(=O)NC1C(=O)N2C(C(=O)O)=C(/C=C\c3cnc(C)s3)CSC12)c1csc(N)n1 (stereo not shown)        µg/mL           1.56

Entry CO/N=C(\C(=O)NC1C(=O)N2C(C(=O)O)=C(C=Cc3sc[n+](C)c3C)CSC12)c1csc(N)n1 (stereo not shown) has what MIC? 0.1

Moving on to the next compound: CO/N=C(\C(=O)NC1C(=O)N2C(C(=O)O)=C(/C=C\c3cncs3)CSC12)c1csc(N)n1 (stereo not shown) 0.39

Moving on to the next compound: CO/N=C(\C(=O)NC1C(=O)N2C(C(=O)O)=C(/C=C\c3cscn3)CSC12)c1csc(N)n1 (stereo not shown) 0.78

Moving on to the next compound: CO/N=C(\C(=O)NC1C(=O)N2C(C(=O)O)=C(/C=C\c3ccco3)CSC12)c1csc(N)n1 (stereo not shown) 1.56

Moving on to the next compound: CO/N=C(\C(=O)NC1C(=O)N2C(C(=O)O)=C(/C=C/c3ccc([N+](=O)[O-])o3)CSC12)c1csc(N)n1 (stereo not shown) 6.25

Moving on to the next compound: CO/N=C(\C(=O)NC1C(=O)N2C(C(=O)O)=C(/C=C\c3sc(Cl)nc3Cl)CSC12)c1csc(N)n1 (stereo not shown) 3.13

Moving on to the next compound: CO/N=C(\C(=O)NC1C(=O)N2C(C(=O)O)=C(C=Cc3ccccc3F)CSC12)c1csc(N)n1 (mixture of isomers) 3.13

Moving on to the next compound: CO/N=C(\C(=O)NC1C(=O)N2C(C(=O)O)=C(/C=C\c3scnc3Cl)CSC12)c1csc(N)n1 (stereo not shown) [Example 21, sodium salt] 0.2

* * *

Tested on: Proteus mirabilis GN 79
Experiment: MIC by agar-dilution method, Proteus mirabilis GN 79
Type: cell-based
Details: GN79, read-out: MIC.
measureName: MIC (µg/mL)
Supply the numeric figure in µg/mL, leaving out any unit text.

Previously resolved entries follow.
> print(dat)
                                   compound  measurename  observedvalue
1  CO/N=C(\C(=O)NC1C(=O)N2C(C(=O)O)=C(/C=C/c3ccc([N+](=O)[O-])o3)CSC12)c1csc(N)n1 (stereo not shown) [Example 13]          MIC           12.5
2  CO/N=C(\C(=O)NC1C(=O)N2C(C(=O)O)=C(/C=C\c3ccccc3)CSC12)c1csc(N)n1 (stereo not shown) [Example 11]          MIC           0.78
3  CO/N=C(\C(=O)NC1C(=O)N2C(C(=O)O)=C(/C=C\c3cncs3)CSC12)c1csc(N)n1 (stereo not shown) [Example 33]          MIC           0.39

Entry CO/N=C(\C(=O)NC1C(=O)N2C(C(=O)O)=C(C=Cc3sc[n+](C)c3C)CSC12)c1csc(N)n1 (stereo not shown) [Example 15] has what MIC? 0.78

Moving on to the next compound: CO/N=C(\C(=O)NC1C(=O)N2C(C(=O)O)=C(/C=C\c3cnc(C)s3)CSC12)c1csc(N)n1 (stereo not shown) [Example 31] 0.78

Moving on to the next compound: CO/N=C(\C(=O)NC1C(=O)N2C(C(=O)O)=C(/C=C\c3sc(Cl)nc3Cl)CSC12)c1csc(N)n1 (stereo not shown) [Example 34] 0.78

Moving on to the next compound: CO/N=C(\C(=O)NC1C(=O)N2C(C(=O)O)=C(C=Cc3ccccc3F)CSC12)c1csc(N)n1 (mixture of isomers) [Example 14] 0.2
